Attribution: patent US8653050B2

TARGET: human S1P1 receptor (Homo sapiens)
Construct: membranes used
Sequence (P21453 whole entry): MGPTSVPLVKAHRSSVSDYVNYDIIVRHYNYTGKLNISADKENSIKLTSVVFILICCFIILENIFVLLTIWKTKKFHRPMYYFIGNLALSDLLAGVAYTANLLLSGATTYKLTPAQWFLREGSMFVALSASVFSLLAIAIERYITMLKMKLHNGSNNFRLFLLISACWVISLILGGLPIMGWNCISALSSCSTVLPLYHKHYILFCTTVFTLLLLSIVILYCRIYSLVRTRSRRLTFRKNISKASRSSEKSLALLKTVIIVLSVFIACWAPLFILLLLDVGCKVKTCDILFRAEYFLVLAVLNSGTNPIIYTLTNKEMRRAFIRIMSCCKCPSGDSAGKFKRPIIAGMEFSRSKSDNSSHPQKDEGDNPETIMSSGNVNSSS
TEST SUMMARY: GTP γ35S binding assay for S1P1 activity
EXPERIMENTAL SETUP: membranes of cells stably expressing S1P1 receptor
pEC50: −log10 of the molar value.
MEASURED PROPERTY: pEC50

Take a look at these entries with their results.
Cc1ccccc1CCCc1ccc(-c2ccc(CNCCCP(=O)(O)O)c3ncccc23)cc1F | 9.00
O=P(O)(O)CCCNCc1ccc(-c2ccc(CCCc3ccccc3)c(F)c2)c2cccnc12 | 8.23
O=P(O)(O)CCCNCc1ccc(-c2ccc(CCC3CCCCC3)cc2)c2cccnc12 | 8.82
CCCCCCc1ccc(-c2ccc(CNCCOP(=O)(O)O)c3ncccc23)cc1 | 7.51
CCCCC(CC)CCc1ccc(-c2ccc(CNCCCP(=O)(O)O)c3ncccc23)cc1 (stereo not drawn) | 8.16
CCCCCCCCc1ccc(-c2ccc(CNCCCP(=O)(O)O)c3ncccc23)cc1 | 7.95
CCCCCCc1ccc(-c2ccc(CNCCCP(=O)(O)O)c3ncccc23)cc1 | 9.22
Cc1ccccc1CCCc1ccc(-c2ccc(CNCCCP(=O)(O)O)c3ncccc23)cc1 | 8.42
CCCCC(CC)CCc1ccc(-c2ccc(CNCCCP(=O)(O)O)c3ncccc23)cc1F (stereo not drawn) | 8.60
CCCCC(CC)CCc1ccc(-c2ccc(CNCCOP(=O)(O)O)c3ncccc23)cc1F (stereo not drawn) | 8.58

a = CCCCCCCc1ccc(-c2ccc(CNCCCP(=O)(O)O)c3ncccc23)cc1F
b = Cc1cccc(CCCc2ccc(-c3ccc(CNCCCP(=O)(O)O)c4ncccc34)cc2F)c1
c = CCCCCCc1ccc(-c2ccc(CNCCCP(=O)(O)O)c3ccccc23)cc1
Problem: Falling order of pEC50, please. List each label, following the requested order.
Result: b, c, a

I = Cc1ccc(CCCc2ccc(-c3ccc(CNCCCP(=O)(O)O)c4ncccc34)cc2F)cc1
II = CCCCCCc1ccc(-c2ccc(CNCCC(=O)O)c3ncccc23)cc1
III = CCCCCCCc1ccc(-c2ccc(CNCCCP(=O)(O)O)c3ncccc23)c(F)c1
Problem: Please list these in order of increasing pEC50. Thank you! List each label, following the requested order.
Result: II, III, I
(II: 6.06, III: 7.87, I: 9.00)
